Test system: Aerobactin synthetase IucA (Klebsiella pneumoniae hvKP1)
assay_method_text: Biochemical IucA enzyme inhibition primary screen of the Spectrum library (AID 1346200);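 further: 100% = wells without compound and 0% = wells lacking enzyme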
assay_context: malachite green pyrophosphate, A620, at 8 µM, stronger effect = lower value
Listing: activity remaining of selected compounds
measurement_label: activity remaining (%)

- CON=C1C[C@]2(C[C@@H]3C[C@@H](C/C=C(\C)C[C@@H](C)/C=C/C=C4\CO[C@@H]5[C@H](O)C(C)=C[C@@H](C(=O)O3)[C@]45O)O2)O[C@H](/C(C)=C/C(C)C)[C@H]1C: 93.8
- CCOC(=O)N1CCC(=C2c3ccc(Cl)cc3CCc3cccnc32)CC1: 116
- Cc1cccc(C(=O)O)c1O: 91.3
- NCC(CC(=O)O)c1ccc(Cl)cc1 (stereo not given): 103
- CCC(C)C(=O)O[C@H]1C[C@H](O)C=C2C=C[C@H](C)[C@H](CC[C@@H](O)C[C@@H](O)CC(=O)O)C21 (stereo not given in full): 113
- COc1ccc(-c2cc(=O)c3c(OC)c(OC)c(OC)c(OC)c3o2)cc1OC: 122
- CC(C(=O)O)[C@H]1CCC2C3CC=C4C[C@@H](O)CC[C@]4(C)C3CC[C@@]21C (stereo not given in full): 98.4
- COC1=CC(=O)C(C(=O)c2ccccc2)=CC1=O: 93.6
- O=c1[nH]c2ccccc2n1C1CCN(CCCC(c2ccc(F)cc2)c2ccc(F)cc2)CC1: 128
- Oc1cccc(O)c1: 116
- CC1(C)CCCC2(C)C3C1[C@@H](O)C2(C)C[C@H]3O (stereo not given in full): 105
- CC(=O)Oc1ccc(/C=C/c2cc(OC(C)=O)cc(OC(C)=O)c2)cc1: 103
- CC(=O)OCC(=O)[C@@]1(O)CCC2C3CCC4=CC(=O)CC[C@]4(C)[C@@]3(F)[C@@H](O)C[C@@]21C (stereo not given in full): 91.4
- C=C[C@H]1CN2CC[C@H]1C[C@H]2[C@H](O)c1ccnc2ccccc12: 97.1
- O=C1C=CC2=C3c4cc(O)c(O)cc4CC3(O)COC2=C1O (stereo not given): 94.5
- NC[C@H]1O[C@H](O[C@H]2[C@H](O)[C@@H](O[C@H]3O[C@H](CO)[C@@H](O)[C@H](N)[C@H]3O)[C@H](N)C[C@@H]2N)[C@H](N)[C@@H](O)[C@@H]1O: 108
- CS(=O)(=O)Nc1ccc([N+](=O)[O-])cc1Oc1ccccc1: 113
- CN1CCC(OC(c2ccccc2)c2ccccc2)CC1: 108
- N=c1ccn2c(n1)O[C@@H]1C2O[C@H](CO)[C@H]1O (stereo not given in full): 105
- CCCCC1C(=O)N(c2ccccc2)N(c2ccccc2)C1=O: 117

* * *

assay_method_text: HCT116 colon cancer cell growth inhibition, primary screen, CellTiter-Glo luminescence, NPC library (AID 1117342)
assay_context: at 20 µM (top of the series)
Attribute: inhibition of viability
measurement_label: inhibition of viability (%)

• NCCc1ccc(O)cc1 = 9.07
• O=c1oc2ccccc2c(O)c1C(CC(O)c1ccc(-c2ccc(Br)cc2)cc1)c1ccccc1 (stereo unspecified) = 101
• COC(=O)C(Cl)C(=O)OC = 37.3
• CCC1(c2ccccc2)C(=O)N(COC)C(=O)N(COC)C1=O = 96.3
• CCOC(=O)NC(O)C(Cl)(Cl)Cl (stereo unspecified) = -2.5
• COC(=O)C1=CCCN(C)C1 = -3.33
• COP(=O)(OC)OC=C(Cl)Cl = -1.53
• [N-]=[N+]=CC(=O)OC[C@H](N)C(=O)O = 77.9
• CCCC(C)(COC(N)=O)COC(=O)NC(C)C (stereo unspecified) = -14.1
• CCOP(=S)(OCC)Oc1cc(C)nc(C(C)C)n1 = 11.6
• CCNc1nc(Cl)nc(NCC)n1 = 3.93
• CC[n+]1c(-c2ccccc2)c2cc(N)ccc2c2ccc(N)cc21 = 79.1
• O=C1NCN(c2ccccc2)C12CCN(CC1COc3ccccc3O1)CC2 (stereo unspecified) = 17.3
• CN1C(=S)CN=C(c2ccccc2)c2cc(Cl)ccc21 = 50.3
• CCN(CC)CCOC(=O)C(O)(c1ccccc1)c1ccccc1 = 1.8
• C[C@]12CC[C@H]3[C@@H](CCC4=CC(=O)CC[C@@H]43)[C@@H]1CC[C@@H]2OC(=O)CCc1ccco1 = 23.6
• CCOC(=O)NC(C)(C)Cc1ccc(Cl)cc1 = 61.4
• CC(C)c1c(CN(C)C(C)Cc2ccccc2)n(C)n(-c2ccccc2)c1=O (stereo unspecified) = 50.3
• CC(=O)C1CCOC1=O (stereo unspecified) = 16.7
• NC(=O)CN1CCCC1=O = -10.5
• C#C[C@]1(O)CC[C@H]2[C@@H]3CCC4=CC(=O)CCC4=C3C=C[C@@]21CC = 26.1
• CCC1(CC)C(=O)C=CNC1=O = -8.6
• CCCC(C)C1(CC)C(=O)N=C(S)NC1=O (stereo unspecified) = -4.4
• O=c1c(C2CC(c3ccc(-c4ccc(Br)cc4)cc3)Cc3ccccc32)c(O)sc2ccccc12 (stereo unspecified) = 123
• CC(Cc1ccccc1)N(C)Cc1ccco1 (stereo unspecified) = 8.5
• O=c1[nH]c2ccccc2n1CCCN1CCC(n2c(=O)[nH]c3cc(Cl)ccc32)CC1 = 13.1

* * *

assay_method_text: survival rescue of mitochondrial mutant cells in low glucose, primary screen, MELAS cybrids, Rieske KO mouse fibroblasts, CellTiter-Glo (AID 1508586);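 further: z relative to plate mean and SD of compound and empty wells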
assay_context: Rieske KO mouse fibroblast survival, CellTiter-Glo 72 h
measurement_label: z-score

• N#CC(OC1OC(COC2OC(CO)C(O)C(O)C2O)C(O)C(O)C1O)c1ccccc1 (stereo not given) = -0.452
• CCCN1CCO[C@@H]2c3cc(O)ccc3OC[C@@H]21 = 0.146
• CN(C)[C@@H]1C(=O)C(C(N)=O)=C(O)[C@@]2(O)C(=O)C3=C(O)c4c(O)cccc4[C@@](C)(O)[C@H]3[C@H](O)[C@@H]12 = -2.32
• CCc1c(C(=O)C(N)=O)c2c(OCC(=O)O)cccc2n1Cc1ccccc1 = 0.396
• CN1CC[C@@]2(C)c3cc(O)ccc3N(C)[C@H]12 = 1.44

* * *

assay_method_text: hESC survival regulators, cell-based (AID 493140);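 further: cells exposed to compounds for four days before counting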
assay_context: human embryonic stem cell survival screen; stronger effect = higher value
Label Fulfilled when survival >= 10; otherwise Not fulfilled.

• CCCCC/C=C\C/C=C\C/C=C\C/C=C\CCCCCC(=O)NCCO = Fulfilled
• CC1O[C@@H](O[C@@H]2C=C3CCC4C(CC[C@]5(C)[C@@H](c6ccc(=O)oc6)CC[C@]45O)[C@@]3(C)CC2)C(O)[C@@H](O)[C@H]1O (stereo partly drawn) = Not fulfilled
• C[C@]12CC[C@H](O)C[C@@H]1CC[C@@H]1[C@@H]2CC[C@]2(C)C(=O)CC[C@@H]12 = Fulfilled
• CCC(=O)O[C@H]1CC[C@H]2[C@@H]3CCC4=CC(=O)CC[C@]4(C)[C@H]3CC[C@]12C = Fulfilled
• CCNC1(c2cccs2)CCCCC1=O (stereo not drawn) = Fulfilled
• CC(=O)OCC(=O)[C@H]1CC[C@H]2[C@@H]3CC[C@H]4C[C@H](O)CC[C@]4(C)[C@H]3C(=O)C[C@]12C = Fulfilled
• CC(Cc1ccc(O)cc1)NCC(O)c1cc(O)cc(O)c1 (stereo not drawn) = Fulfilled
• CCCCC[C@@H](/C=C/C=C\CCCCCCCCCC(=O)O)OO = Fulfilled
• C[C@@H]1CC[C@H]2[C@@H](C)C(=O)O[C@@H]3OC4(C)CC[C@@H]1[C@]32OO4 = Not fulfilled
• CN1C2CCC1CC(OC1c3ccccc3CCc3ccccc31)C2 (stereo not drawn) = Not fulfilled
• CC(C)[C@@]1(NC(=O)[C@@H]2C[C@@H]3c4cccc5[nH]cc(c45)C[C@H]3N(C)C2)O[C@@]2(O)[C@@H]3CCCN3C(=O)[C@H](Cc3ccccc3)N2C1=O = Fulfilled
• NCCC(O)C(=O)NC1CC(N)C(OC2OC(CN)C(O)[C@H](O)[C@@H]2N)[C@H](OC2O[C@H](CO)[C@@H](O)[C@@H]2O)[C@@H]1O (stereo partly drawn) = Not fulfilled
• CC[C@@]1(O)C(=O)OCc2c1cc1n(c2=O)Cc2cc3ccccc3nc2-1 = Not fulfilled
• C[C@]12CCC(=O)C=C1C=C[C@@H]1[C@@H]2CC[C@@]2(C)[C@H]1CC[C@@]2(O)CCC(=O)O = Fulfilled
• C[C@@H]1NCCc2cc(O)c(O)cc21 = Not fulfilled
• C#C[C@]1(O)CCC2C3CCC4=CC(=O)CC[C@]4(C)C3CC[C@@]21C (stereo partly drawn) = Fulfilled
• O=c1[nH]c2ccccc2n1CCCN1CCC(n2c(=O)[nH]c3cc(Cl)ccc32)CC1 = Not fulfilled
• CCCCC/C=C\C/C=C\C/C=C\C/C=C\CCCC(=O)N[C@H](C)CO = Fulfilled
• Clc1ccc(CCC(Cn2ccnc2)Sc2c(Cl)cccc2Cl)cc1 (stereo not drawn) = Fulfilled
• O=C1C=C2C=C[C@@H]3CC2(O1)[C@H]1CCCCN31 = Not fulfilled
• CN1Cc2c(ccc3c2OCO3)[C@@H]2[C@H]1c1cc3c(cc1C[C@@H]2O)OCO3 = Not fulfilled
• CC(C)C1C(=O)N2CCCC2C2(O)OC(NC(=O)C3CC4c5cccc6[nH]cc(c56)CC4N(C)C3)(C(C)C)C(=O)N12 (stereo not drawn) = Not fulfilled
• CNCC(O)c1ccc(O)c(OC)c1 (stereo not drawn) = Fulfilled
• C[N+]1([O-])[C@@H]2CC[C@H]1CC(OC(=O)C(CO)c1ccccc1)C2 (stereo partly drawn) = Fulfilled
• c1ccc2c(c1)OCC(C1=NCCN1)O2 (stereo not drawn) = Not fulfilled
• CC(=O)O[C@@H]1CC(O[C@@H]2C(C)OC(O[C@@H]3C(C)OC(OC4CC[C@@]5(C)[C@H](CC[C@]6(C)[C@]5(C)C[C@@H](O)[C@]5(C)[C@@H](C7=CC(=O)OC7)CC[C@@]56O)C4)C[C@H]3O)C[C@H]2O)OC(C)[C@H]1OC1OC(CO)[C@@H](O)[C@@H](O)[C@@H]1O (stereo partly drawn) = Not fulfilled
• CCC(C)C1OC2(C=CC1C)CC1CC(CC=C(C)C(OC3CC(OC)C(OC4CC(OC)C(O)C(C)O4)C(C)O3)C(C)C=CC=C3COC4C(O)C(C)=CC(C(=O)O1)C34O)O2 (stereo not drawn) = Not fulfilled
• CN1C2CCC1CC(O)C2 (stereo not drawn) = Not fulfilled
• Clc1ccc(C(OCCN2CCCCC2)c2ccccc2)cc1 (stereo not drawn) = Not fulfilled
• CCC1(c2ccc(N)cc2)CCC(=O)NC1=O (stereo not drawn) = Fulfilled
• CCCCCCCCCCCCCCC[C@@H](O)[C@@H](N)COP(=O)(O)O = Fulfilled
• COC1=CC(=O)O[C@@H](/C=C/c2ccccc2)C1 = Fulfilled
• CC[N+]1(C)CCCC(OC(=O)C(O)(c2ccccc2)c2ccccc2)C1 (stereo not drawn) = Not fulfilled
• COc1cc2c(cc1O)C1Cc3ccc(OC)c(O)c3CN1CC2 (stereo not drawn) = Not fulfilled
• OC1CCCCC1N1CCC(c2ccccc2)CC1 (stereo not drawn) = Not fulfilled
• CN1CCc2cc3c(cc2C1O)OCO3 (stereo not drawn) = Fulfilled
• C[C@@H]1C[C@@H]([C@H](O)CC2CC(=O)NC(=O)C2)C(=O)[C@@H](C)C1 = Not fulfilled
